Test: yeast display, Sf9 membrane polyspecificity reagent, FACS + sequencing; frameworks hold sequencing errors
Endpoint label: polyreactivity (PSR sort gate)

{"Residue sequence": "QVQLVESGGGLVQAGGSLRLSCAASGLTFSDNAMGWYRQAPGKEREFVAAITRNGGSTRYADSVKGRFTISRDNAKNTVYLQMNSLKPEDTAVYYCAAVPVGYDSDWGYYYWGQGTQVTVSS", "polyreactivity (PSR sort gate)": "low polyreactivity"}
{"Residue sequence": "QVQLVESGGGLVQAGGSLRLSCAASGIIFDINAMGWYRQAPGKERELVAAITTSVDSTYYADSVKGRFTISRDNAKNTVYLQMNRLKPEDTAVYYCAVAFVQFTQYDYWGQGTQVTVSS", "polyreactivity (PSR sort gate)": "low polyreactivity"}
{"Residue sequence": "QVQLVESGGGLVQAGGSLRLSCAASVIIFTRYAMGWYRQATGKERELVAGITRRGGSTYYADSVKGRFTISRDNAKNTVYLQMKSLKPEDTAVYYCNTYQRDYPYGVEDDSWGQGTEVTVSS", "polyreactivity (PSR sort gate)": "high polyreactivity"}
{"Residue sequence": "QVQLVESGGGLVQAGGSLRLSCAASGSTFKRYAMGWYRQAPGKERELVASISSGGSTNYADSVKGRFTISRDNAKNTVYLQMNSLKPEDTAVYYCAVSYRSFRYYWERYYSWGQGTQVTVSS", "polyreactivity (PSR sort gate)": "high polyreactivity"}
{"Residue sequence": "QVQLVESGGGLVQAGGSLRLSCAASGSIFFNNTKGWYRPAPGKERELVAAINWSGTSTYYADSVKGRFTISRDNAMNTVYLQMNSLKPEDTEVYYCAADVVRSNFDGTFLYDYDYWGLGTQVTVSS", "polyreactivity (PSR sort gate)": "low polyreactivity"}

Recorded polyreactivity (PSR sort gate) for QVQLVESVGGLVQAGGSLRLSCAASGSTFKGYYMGWYRQAPGKERELVAAIDSGGSTYYADSVKGRFTISRDNAKNTVYLQMNSLNPVDTAVYYCAATGQDTYGLDVVDEYDYWGQGTKVTVSS , please?
low polyreactivity

Please answer likewise for QVQLVESGGGLVQAGGSLRLSCAASGSTFNWNAMGWYRPAPGKERELVAAISRSGGRTSYADSVKGRFTISRDNAKNTVYLQMNSLKPEDTAVYYCAAEKVGTRPSRDYDYWGQGTQVTVSS
high polyreactivity

Note, next up: QVQLVESGGGLVQAGGSLRLSCAAAGSIFSGYAMGWSRQAPGKERELVAAISGSGGSTFYADSVKGRFTISRDNAKKTVYLQMNSLKPEDTAVYYCAARRIAPYARYDYWGQGTQVTVSS
low polyreactivity

Now give it for QVQLVESGGGLVQAGGSLRLSCAASGRTFVNYTMGWYRQAPGKERELVAAVSWTGGRTYYADSVKGRFTISRDNAKNTVYLQMNSLKPEDTAVYYCATQPEKSGRPAIDPELYDYWGQGTQVTVSS too.
low polyreactivity

Same question, QVQLVESGGRLVQAGGSIRLSCAASGRTFYNNAMGWYRQAPGKERELVAAISSGGSTYYADSVKGRFTISRDNAKNTVYLQMNSLKPEDTAVYYCNVRRGGWGYRYYYWGQGNQVTVSS this time
high polyreactivity

====

Experiment: yeast display, Sf9 membrane polyspecificity reagent, FACS + sequencing; frameworks hold sequencing errors
Endpoint label: polyreactivity (PSR sort gate)

Solved cases (10 shown):
{"Residue sequence": "QVQLVESGGGLVQAGGSLRLSCAASGRIFYTNGMGWYRQAPGKERELVAAISYNGGRTYYADSVKGRFTISRDNAKNTVYLQMNSLKPEDTAVYYCNKRGDYQFHFDYWGQGTQVTVSA", "polyreactivity (PSR sort gate)": "low polyreactivity"}
{"Residue sequence": "QVQLQESGDGLVQAVGSLRLSCAASGYISGYNYMGWYRQAPGKERELVAGIDAFGSSTNYADCVKGRFTISRDNAKNTVYLQMNSPKPEDTAVYYCAAEYDDWDYLWYWGQGTQVTVSS", "polyreactivity (PSR sort gate)": "low polyreactivity"}
{"Residue sequence": "QVQLVESGGGLVQAGGSLRLSCAASGRTFAGNAMGWYRQAPGKEREFVASITASGVNTYYADSVKGRFTISRDNAKNTVYLQMNSLKPEDTAVYYCNKRNRWTPFYTYDYWGQGTQVTVSS", "polyreactivity (PSR sort gate)": "low polyreactivity"}
{"Residue sequence": "QVQLVESGGGLVQAGGSLRLSCAASGSIFWTYAMGWYRQAPGKEREFVAAITFNYGSTYYADSVKGRFTISRDTAKNTVYLQMNSVKPEDTAVYYCNADTWYYYNFWSYIEYDYWGQGTQVTVSS", "polyreactivity (PSR sort gate)": "high polyreactivity"}
{"Residue sequence": "QVQLVESGGGLVQAGGSLRLSCAASGFIFFYYAMGWYRQAPGKERELVAAITRGGSTNYADSVKGRFTISRDNAKNTVYLQMNRLKPEDTAVYYCNKQYGRRHYWGDDYYWGQGTQVTVSS", "polyreactivity (PSR sort gate)": "low polyreactivity"}
{"Residue sequence": "QVQLVESGGGLVQAGGSLRLSCAASGRIFNLYAMGWYRPAPGKESELVAAISGSGGRTSYADSVKGRFTISRDNAKNTVYLQMNSLKPEDTAVYYCAADYSFYTSFRYDYWGQGTQVTVSS", "polyreactivity (PSR sort gate)": "low polyreactivity"}
{"Residue sequence": "QVQLVESGGGLVQAGGRLSLSCAASGFIFDYYSMGWYRQAPGKERELVAAISWSGGSTYYADSVKGRFTISRDNAKNTVYLQMNSLKPEDTAVYYCNTYYQGYWGDFDYWGQGTQVTVSS", "polyreactivity (PSR sort gate)": "high polyreactivity"}
{"Residue sequence": "QVQLQESGGGLVQAGGCLSCTASGTIFGQGDMGWYRQAPGKERELVATINDGASTYYADSVKGRFTISRDKAKNTVYLQKNSLKPDDTAVYYCAVCTDITTYFGYWGQGTQVTVSS", "polyreactivity (PSR sort gate)": "low polyreactivity"}
{"Residue sequence": "QDQLVESGGGLVQAGGSLRLSCAASGSIFSYYAMGWYRQAPGKERELVAAIRRGGSTYYADSVKGRFTISRDNEKNSVYLQMNSLKPEDNAVYYCAASLGWRFYYWGQGTQVTVSS", "polyreactivity (PSR sort gate)": "high polyreactivity"}
{"Residue sequence": "QVQLVESGGGLVQAGGSLRLSCAASGFIFRPYVMGWYRQAPGKERELVAAISRSGSSTYYADSVKGRFTISRDNAKNTVYLQMNSLQPEDTAVYYCARRTSQEFDYWGQGTQVTVSS", "polyreactivity (PSR sort gate)": "high polyreactivity"}

Kindly review the next sequence as well.
What value of polyreactivity (PSR sort gate) has been reported for the following sequence? QVQLVESGGGLVQAGGSLRLSCAASGSTFYIYAMGWYRQAPGKEREFVAAIDLSGSSTYADSVKGRFTISRDNAKNTVYLQMKSLKPEDTAVYYCAAYQIYQYDGPYDYWGQGTQVTVSS
low polyreactivity
